# Assay target: T1, EsCas13d, nuclease-dead (Eubacterium siraeum, UniProt B0MS50, R295A;H300A;R849A;H854A)
# T1 sequence: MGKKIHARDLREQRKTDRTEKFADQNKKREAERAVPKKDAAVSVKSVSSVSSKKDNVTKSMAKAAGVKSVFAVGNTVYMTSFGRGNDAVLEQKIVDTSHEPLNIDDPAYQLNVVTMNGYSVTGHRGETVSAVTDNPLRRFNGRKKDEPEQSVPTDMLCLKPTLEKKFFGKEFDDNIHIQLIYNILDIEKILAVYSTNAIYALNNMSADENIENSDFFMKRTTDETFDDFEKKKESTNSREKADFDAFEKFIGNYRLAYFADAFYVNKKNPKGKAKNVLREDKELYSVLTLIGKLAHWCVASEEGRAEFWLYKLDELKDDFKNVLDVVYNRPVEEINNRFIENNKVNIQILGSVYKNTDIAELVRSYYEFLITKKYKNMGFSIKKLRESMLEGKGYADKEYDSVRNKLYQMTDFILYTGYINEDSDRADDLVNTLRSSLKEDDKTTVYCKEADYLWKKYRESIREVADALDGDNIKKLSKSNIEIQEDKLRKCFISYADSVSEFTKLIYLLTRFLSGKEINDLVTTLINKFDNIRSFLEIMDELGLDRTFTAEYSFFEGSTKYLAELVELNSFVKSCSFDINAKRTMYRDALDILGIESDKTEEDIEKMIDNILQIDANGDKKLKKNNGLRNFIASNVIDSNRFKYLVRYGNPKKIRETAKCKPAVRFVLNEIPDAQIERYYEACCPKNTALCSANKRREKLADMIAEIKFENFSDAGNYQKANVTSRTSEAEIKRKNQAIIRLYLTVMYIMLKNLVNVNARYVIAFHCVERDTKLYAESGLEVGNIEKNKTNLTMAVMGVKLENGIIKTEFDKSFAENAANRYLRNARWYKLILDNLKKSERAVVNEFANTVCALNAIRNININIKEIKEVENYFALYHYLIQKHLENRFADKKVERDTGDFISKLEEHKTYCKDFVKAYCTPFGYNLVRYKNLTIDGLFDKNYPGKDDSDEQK
# Measurement notes: crRNA (strand 1, pre-loaded); Mg2+; 40 mM Tris-HCl pH 7.5, 150 mM NaCl, 6 mM MgCl2, 1 mM DTT, 0.1% Tween-20, 0.2 mg/ml BSA; 25 C; 10 min per concentration, then washed
# Condition label: tags: His6-TwinStrep-SUMO cleaved; N-terminal SNAP kept (SNAP-Surface 488); label: 3' end held by stalled T7 RNA polymerase
Catalogue of pKd readings, one per entry.
Conceptually, pKd converts a concentration in mol/L into minus its log10.

Give a short answer stating reported pKd for target 2 MT 5'PFS AUU 3'PFS UUU (mixed) RNA 1: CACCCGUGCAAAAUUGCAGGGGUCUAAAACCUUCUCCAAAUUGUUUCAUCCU RNA 2: GGGAAUGGAUCCACAUCUACGAAUUCAUUAGGAUGAAACAAUUUGGAGAAGUUUAGAUCGGAAGAGCACACGU .
7.49

Give a short answer stating reported pKd for target 1 U11C,C21A (mixed) RNA 1: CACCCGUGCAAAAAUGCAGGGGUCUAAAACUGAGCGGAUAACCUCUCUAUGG RNA 2: GGGAAUGGAUCCACAUCUACGAAUUCGUACAAUAGAGAGGCUAUCCGCUCACCGAGAUCGGAAGAGCACACGU .
7.29
